Values compiled from PubChem BioAssay.

# subject of test: Follistatin-related protein 3 (Homo sapiens)
# assay overview: FSTL3 binders on small-molecule microarrays, primary screen, biochemical, small-molecule microarray, 635 nm fluorescence (AID 1105);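 further: score merges emission near 667 nm and signal to noise per printed spot across three slides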
# measurement context: FSTL3 binding, higher = more signal
Each entry gets not satisfied if its composite z-score stays under 1, and satisfied if its composite z-score is 1 or above.

Please check the record Cc1ccc(C(C)CC(O)C2C=CC3C(=O)N(c4ccccc4)C(=O)C3N2Nc2ccc([N+](=O)[O-])cc2)o1 (stereo unspecified) and state if its composite z-score is at or above 1. not satisfied

Check if composite z-score >= 1 (inclusive). Item: `COCCOC(=O)N1C(=O)[C@@]2(c3ccccc31)[C@H](c1ccccc1OCCO)N1[C@H](c3ccccc3)[C@H](c3ccccc3)OC(=O)[C@H]1[C@@H]2C(=O)Nc1nc2ccccc2s1` satisfied

Please indicate if the recorded composite z-score for `COCCOC(=O)N1C(=O)[C@@]2(c3cc(C#CCCO)ccc31)[C@H](c1ccc(OCCO)cc1)N1[C@H](c3ccccc3)[C@H](c3ccccc3)OC(=O)[C@H]1[C@@H]2C(=O)N1CCN(c2ncccn2)CC1` meets or exceeds 1. satisfied

Is composite z-score for `[N-]=[N+]=NCc1ccccc1[C@@H]1OC(c2ccc(OCCCO)cc2)=N[C@]1(CCS(=O)(=O)c1ccccc1)C(=O)NCCN1CCOCC1` at or above 1? satisfied

State whether the measured composite z-score reaches 1, counting equality as reaching it, for `CCCCC(=C=CC[C@@H](O)c1ccccc1OCCO)CCO` not satisfied

I'd appreciate it if you could say whether C=CCC(OC(C)=O)[C@@H]1[C@@H](N(Cc2ccc(-c3cccc(C(F)(F)F)c3)o2)C(=O)Cc2ccc(F)cc2)c2cc(OCCCO)ccc2N1C(=O)Cc1ccc(OC)cc1 (stereo partly specified) has composite z-score at least equal to 1. not satisfied
